targetSystem: T1, apical domain of human CD71 (human, UniProt P02786 189-383, limits assumed)
T1 construct: domain: apical domain; Screen 4 panned on human apical domains, the ELISA text says only 'apical domain'
T1 sequence (P02786 189-383 limits assumed): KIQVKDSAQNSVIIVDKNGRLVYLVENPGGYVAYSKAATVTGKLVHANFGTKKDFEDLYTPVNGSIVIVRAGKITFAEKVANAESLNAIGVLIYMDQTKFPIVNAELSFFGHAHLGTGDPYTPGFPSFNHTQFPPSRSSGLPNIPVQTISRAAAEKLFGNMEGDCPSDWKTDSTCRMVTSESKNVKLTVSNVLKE
experimentNotes: primary ELISA; further: test concentration or dose not given here

# binder, RLU [RLU]
rows = [
    ("CD71-binding FN3 domain of SEQ ID NO: 455 (designed binder) MLPAPKNLVVSRVTEDSARLSWTAPDAAFDSFTISYPEEAKHGEAIVLTVPGSERSYDLTGLKPGTEYGVPINGVKGGVSSLPLSAIFTT", "4.83e+06"),
    ("CD71-binding FN3 domain of SEQ ID NO: 476 (designed binder) MLPAPKNLVVSRVTEDSARLSWTAPDAAFDSFFIGYLEPQPPGEAIHLQVPGSERSYDLTGLKPGTEYNVTIQGVKGGFPSIPLIAVFTT", "3.4e+06"),
    ("CD71-binding FN3 domain of SEQ ID NO: 468 (designed binder) MLPAPKNLVVSRVTEDSARLSWTAPDAAFDSFLIQYDEEGVWGEAIVLTVPGSERSYDLTGLKPGTEYSVGIGGVKGGWSSVPLSAIFTT", "3.58e+06"),
    ("CD71-binding FN3 domain of SEQ ID NO: 511 (designed binder) MLPAPKNLVVSRVTEDSARLSWTAPDAAFDSFFIGYLEPQPPGEAIDLFVPGSERSYDLTGLKPGTEYNVTIQGVKGGFPSLPLVASFTT", "5.48e+06"),
    ("CD71-binding FN3 domain of SEQ ID NO: 524 (designed binder) MLPAPKNLVVSRVTEDSARLSWTAPDAAFDSFFIGYLEPQPPGEAIHLWVPGSERSYDLTGLKPGTEYNVTIQGVKGGFPSMPLSAIFTT", "3.95e+06"),
    ("CD71-binding FN3 domain of SEQ ID NO: 483 (designed binder) MLPAPKNLVVSRVTEDSARLSWTAPDAAFDSFFIGYLEPQPPGEAITLVVPGSERSYDLTGLKPGTEYNVTIQGVKGGFPSDPLVASFTT", "3.47e+06"),
    ("CD71-binding FN3 domain of SEQ ID NO: 458 (designed binder) MLPAPKNLVVSRVTEDSARLSWTAPDAAFDSFLDLLPSNWDIAGEAIVLTVPGSERSYDLTGLKPGTEYHVNILGVKGGKESLPLVANFTT", "4.64e+06"),
]
